# maps each entry to its inhibition at 1 µM
molecular target: human PHD2 (Homo sapiens (Human), UniProt Q9GZT9); experiment: Test 1: human PHD2 inhibitory activity, [14C]-2-oxoglutarate to [14C]-succinic acid radiometric assay with HIF-1α peptide; assay type: biochemical; conditions: test compound's concentration 1 μM; Test 1, [14C]-2-oxoglutarate radiometric assay; read-out: Percent inhibition (% at 1 μM)
Sequence (Q9GZT9 whole entry): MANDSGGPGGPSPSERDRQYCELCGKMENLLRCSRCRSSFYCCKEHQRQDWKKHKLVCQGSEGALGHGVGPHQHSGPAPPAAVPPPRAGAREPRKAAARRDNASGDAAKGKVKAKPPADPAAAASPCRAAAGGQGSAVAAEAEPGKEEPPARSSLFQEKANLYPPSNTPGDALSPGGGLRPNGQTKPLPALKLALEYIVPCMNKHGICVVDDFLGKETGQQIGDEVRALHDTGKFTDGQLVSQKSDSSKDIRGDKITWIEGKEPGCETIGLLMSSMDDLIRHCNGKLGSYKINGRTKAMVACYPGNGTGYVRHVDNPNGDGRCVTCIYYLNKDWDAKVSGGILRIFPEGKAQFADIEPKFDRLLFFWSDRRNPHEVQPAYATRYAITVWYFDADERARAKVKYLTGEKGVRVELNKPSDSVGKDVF

{"compound": "O=C(O)CNC(=O)C1=C(O)C2(CC2)CN(Cc2ccc(C3CC3)cc2)C1=O", "unit-abbreviation": "%", "inhibition at 1 µM": 89}
{"compound": "O=C(O)CNC(=O)C1=C(O)CCN(c2ccccc2)C1=O", "unit-abbreviation": "%", "inhibition at 1 µM": 48}
{"compound": "O=C(O)CNC(=O)C1=C(O)C2CCCCC2N(Cc2ccc(C(F)(F)F)cc2)C1=O (centres unmarked)", "unit-abbreviation": "%", "inhibition at 1 µM": 41}
{"compound": "Cc1cc(CN2C(=O)C(C(=O)NCC(=O)O)=C(O)CC2(C)C)ccc1OC(CF)CF", "unit-abbreviation": "%", "inhibition at 1 µM": 53}
{"compound": "CC1CN(Cc2ccc(-c3ccc(C(F)(F)F)cc3)cc2)C(=O)C(C(=O)NCC(=O)O)=C1O (centres unmarked)", "unit-abbreviation": "%", "inhibition at 1 µM": 60}
{"compound": "O=C(O)CNC(=O)C1=C(O)CCN(Cc2ccc(-c3cccc(Cl)c3)cc2)C1=O", "unit-abbreviation": "%", "inhibition at 1 µM": 95}
{"compound": "CSc1ccc(CN2CCC(O)=C(C(=O)NCC(=O)O)C2=O)cc1", "unit-abbreviation": "%", "inhibition at 1 µM": 84}
{"compound": "O=C(O)CNC(=O)C1=C(O)CC2(CCOCC2)N(Cc2ccc(-c3ccccc3)cc2)C1=O", "unit-abbreviation": "%", "inhibition at 1 µM": 93}
{"compound": "O=C(O)CNC(=O)C1=C(O)CCN(Cc2ccc(Oc3ccc(Cl)cn3)cc2)C1=O", "unit-abbreviation": "%", "inhibition at 1 µM": 95}
{"compound": "O=C(O)CNC(=O)C1=C(O)CCN(Cc2ccc(Oc3ccc(Cl)cc3)cc2)C1=O", "unit-abbreviation": "%", "inhibition at 1 µM": 98}
{"compound": "Cc1ccccc1-n1ncc(CN2CCC(O)=C(C(=O)NCC(=O)O)C2=O)c1C", "unit-abbreviation": "%", "inhibition at 1 µM": 81}
{"compound": "O=C(O)CNC(=O)C1=C(O)CCN(Cc2ccc(-c3ccc(C(F)(F)F)cc3)cc2)C1=O", "unit-abbreviation": "%", "inhibition at 1 µM": 91}
{"compound": "O=C(O)CNC(=O)C1=C(O)CC2(COC2)N(CC2CCC(c3ccccc3)CC2)C1=O (centres unmarked)", "unit-abbreviation": "%", "inhibition at 1 µM": 103}
{"compound": "O=C(O)CNC(=O)C1=C(O)CCN(Cc2ccc(OCC(F)(F)F)c(Cl)c2)C1=O", "unit-abbreviation": "%", "inhibition at 1 µM": 90}
{"compound": "O=C(O)CNC(=O)C1=C(O)C2(CCC2)CN(Cc2ccc(C3CC3)cc2)C1=O", "unit-abbreviation": "%", "inhibition at 1 µM": 74}
{"compound": "O=C(O)CNC(=O)C1=C(O)C2(CCCCC2)CN(Cc2cnc(-c3ccccc3)s2)C1=O", "unit-abbreviation": "%", "inhibition at 1 µM": 85}
{"compound": "O=C(O)CNC(=O)C1=C(O)C2(CC2)CN(Cc2ccc(OCC3CC3)cc2)C1=O", "unit-abbreviation": "%", "inhibition at 1 µM": 90}

Value source: patent US9422240B2
